- Procedure Summary: binders of probe aHhip on microarray, primary screen, stem cell growth factor project, biochemical, small-molecule microarray, fluorescence 635/667 (AID 1087);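 note: score merges spot fluorescence at 667nm with spot signal to noise ratio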
- Assay Conditions: higher = more signal
compounds and their reported composite z-score
Experimental Endpoint: composite z-score

INSERT INTO results (compound_string, experimental_endpoint, test_value) VALUES
  ('CC(C)(C)OC(=O)N1[C@@H](C=C(Br)Br)COC1(C)C', 'composite z-score', 0.0302),
  ('COCCOC(=O)N1C(=O)[C@@]2(c3cc(C#CCC(C(=O)OC)C(=O)OC)ccc31)[C@H](C(=O)N1CCc3cc(OC)c(OC)cc3C1)[C@H]1C(=O)O[C@H](c3ccccc3)[C@H](c3ccccc3)N1[C@@H]2c1ccccc1OCCO', 'composite z-score', -0.204),
  ('O=C1N(Cc2ccccc2)Cc2ccccc2C[C@@]12COC(c1ccc(OCCCO)cc1)=N2', 'composite z-score', 0.369),
  ('COCCOC(=O)N1C(=O)[C@@]2(c3cc(C#CC4=CCCCC4)ccc31)[C@H](C(=O)N1CCCCCCC1)[C@H]1C(=O)O[C@H](c3ccccc3)[C@H](c3ccccc3)N1[C@@H]2c1ccccc1OCCO', 'composite z-score', 0.33),
  ('C#CCN(C(=O)OC(C)(C)C)[C@H](CO)c1ccccc1', 'composite z-score', -0.111),
  ('COc1ccc([Si](C)(C)[C@H]2[C@H](CC(=O)N(CCO)Cc3ccccc3)O[C@@]3(C(=O)N(Cc4ccc(N5C(=O)c6cccc7cccc5c67)cc4)c4ccccc43)[C@@H]2C)cc1', 'composite z-score', 0.12),
  ('COC(=O)[C@@]1(Cc2ccc(F)cc2)[C@H]2c3cc(C(=O)N(C)C)n(Cc4ccc(C(F)(F)F)nc4)c3C[C@H]2CN1C(=O)c1ccccc1', 'composite z-score', 0.264),
  ('CC(C)N1C(=O)[C@@]2(Cc3ccccc31)c1ccccc1C(=O)N(Cc1ccccc1C(F)(F)F)[C@H]2c1ccc(CO)cc1', 'composite z-score', -0.116);
